This collection of values is drawn from ChEMBL document CHEMBL1201862.

- system: UniProtKB Q6QLK5
- Sequence (Q6QLK5 whole entry, the tested form may be a part): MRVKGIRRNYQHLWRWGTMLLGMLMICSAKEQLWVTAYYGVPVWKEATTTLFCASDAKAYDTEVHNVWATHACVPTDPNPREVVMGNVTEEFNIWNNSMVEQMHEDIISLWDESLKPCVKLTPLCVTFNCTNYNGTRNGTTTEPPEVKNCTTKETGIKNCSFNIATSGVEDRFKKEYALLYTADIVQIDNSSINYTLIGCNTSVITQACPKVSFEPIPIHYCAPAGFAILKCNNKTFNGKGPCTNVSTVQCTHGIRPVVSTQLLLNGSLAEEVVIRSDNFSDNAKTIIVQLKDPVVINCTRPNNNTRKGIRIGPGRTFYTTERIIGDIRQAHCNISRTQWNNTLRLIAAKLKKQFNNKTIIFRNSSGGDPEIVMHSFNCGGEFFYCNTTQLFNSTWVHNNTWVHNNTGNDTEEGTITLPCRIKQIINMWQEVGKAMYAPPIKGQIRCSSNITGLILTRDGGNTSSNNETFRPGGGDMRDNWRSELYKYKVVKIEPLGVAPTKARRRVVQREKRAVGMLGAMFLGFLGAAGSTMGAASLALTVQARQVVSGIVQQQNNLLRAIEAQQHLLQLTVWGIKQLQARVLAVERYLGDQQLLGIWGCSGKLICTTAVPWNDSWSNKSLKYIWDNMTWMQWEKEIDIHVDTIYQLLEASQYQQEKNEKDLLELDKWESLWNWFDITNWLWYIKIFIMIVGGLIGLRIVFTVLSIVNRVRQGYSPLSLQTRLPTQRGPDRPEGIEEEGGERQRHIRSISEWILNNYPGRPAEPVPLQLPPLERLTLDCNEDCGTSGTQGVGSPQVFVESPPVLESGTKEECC
- experimentDescription: cell-free HIV fusion peptide-binding blockers – biochemical, uHTS, fluorescence dequenching, […] (AID 1986)
The source made the active and inactive calls. Cut-off read from the data, not from the text of the source: actives have a measured IC50 and inactives only a lower limit.
Listed molecules paired with reported IC50
measuredAttribute: IC50

{"structureNotation": "COc1cc(/C=C2\\C(=N)N3N=C(S(C)(=O)=O)SC3=NC2=O)cc(OC)c1OCCOc1ccccc1C", "measuredAttribute": "IC50", "result": "14.6 µM (active)"}
{"structureNotation": "O=C1NN(c2ccc(Cl)c(Cl)c2)C(=O)/C1=C/c1ccc(-c2ccccc2C(=O)O)o1", "measuredAttribute": "IC50", "result": "15.7 µM (active)"}
{"structureNotation": "O=C(O)c1cccc(NC(=S)N/N=C/c2ccccc2OCc2cccc(Br)c2)c1", "measuredAttribute": "IC50", "result": "13.2 µM (active)"}
{"structureNotation": "Cc1ccc(-n2cccc2/C=C2/C(=N)N3C(=NC2=O)SN=C3S(C)(=O)=O)cc1Cl", "measuredAttribute": "IC50", "result": "6.32 µM (active)"}
